A collection of compounds and their measured TGI
test system: HOP-62 NSCLC; experiment: NCI tumour cell line growth inhibition, 48 h

Example entries and their recorded answers appear below.
COMPOUND | REPORTED
CCCCCCCCCCCCCC(=O)CBr | 50.6 µM
COc1cc(C2c3cc4c(cc3[C@@H](Nc3cccc(C(C)=O)c3)C3COC(=O)[C@H]23)OCO4)cc(OC)c1O (stereo not given in full) | 0.538 µM
C[Si](C)(OCCS(=O)(=O)O)C1S(=O)(=O)OCCOS1(=O)=O | > 100 µM
CC12CCC(=O)C=C1CCC1C2C(O)CC2(C)C(c3csc(N)n3)CCC12 (stereo not given) | > 100 µM

# evaluate next
Entry CC(C)C1CC(O)O[C@@H]([C@@H](C)[C@H]2CC(=O)[C@@H]3[C@@H]4[C@@H](O)[C@H](O)[C@H]5[C@@H](O)[C@H](O)CC[C@]5(C)[C@H]4CC[C@]23C)C1 (stereo not given in full) — recorded TGI = 61.4 µM
